Origin of values: patent US8466193B2

Kindly state Cmax for each of the entries shown.
# experimentNotes: Pharmacokinetic analysis in male rats, oral gavage
# Assay type: in vivo
# measurementParameters: CD IGS (Sprague-Dawley derived), rat, plasma, orally at 3 mg/kg, compounds administered in combination
Numbers only, in ng/mL.

>>> print(df.to_string())
                                   compound  unitspec  datavalue
0  O=C(NO)c1ccc2ccn(CCCc3ccccc3)c2c1 [Compound 303]     ng/mL        310

Task: Specify reported Cmax for the compound shown: O=C(NO)c1ccc2ccn(CCOc3ccccc3)c2c1 [Compound 316]
Output: 828

* * *

# experimentalSystem: HDAC6 (Homo sapiens)
# Sequence (Q9UBN7 whole entry, species assumed): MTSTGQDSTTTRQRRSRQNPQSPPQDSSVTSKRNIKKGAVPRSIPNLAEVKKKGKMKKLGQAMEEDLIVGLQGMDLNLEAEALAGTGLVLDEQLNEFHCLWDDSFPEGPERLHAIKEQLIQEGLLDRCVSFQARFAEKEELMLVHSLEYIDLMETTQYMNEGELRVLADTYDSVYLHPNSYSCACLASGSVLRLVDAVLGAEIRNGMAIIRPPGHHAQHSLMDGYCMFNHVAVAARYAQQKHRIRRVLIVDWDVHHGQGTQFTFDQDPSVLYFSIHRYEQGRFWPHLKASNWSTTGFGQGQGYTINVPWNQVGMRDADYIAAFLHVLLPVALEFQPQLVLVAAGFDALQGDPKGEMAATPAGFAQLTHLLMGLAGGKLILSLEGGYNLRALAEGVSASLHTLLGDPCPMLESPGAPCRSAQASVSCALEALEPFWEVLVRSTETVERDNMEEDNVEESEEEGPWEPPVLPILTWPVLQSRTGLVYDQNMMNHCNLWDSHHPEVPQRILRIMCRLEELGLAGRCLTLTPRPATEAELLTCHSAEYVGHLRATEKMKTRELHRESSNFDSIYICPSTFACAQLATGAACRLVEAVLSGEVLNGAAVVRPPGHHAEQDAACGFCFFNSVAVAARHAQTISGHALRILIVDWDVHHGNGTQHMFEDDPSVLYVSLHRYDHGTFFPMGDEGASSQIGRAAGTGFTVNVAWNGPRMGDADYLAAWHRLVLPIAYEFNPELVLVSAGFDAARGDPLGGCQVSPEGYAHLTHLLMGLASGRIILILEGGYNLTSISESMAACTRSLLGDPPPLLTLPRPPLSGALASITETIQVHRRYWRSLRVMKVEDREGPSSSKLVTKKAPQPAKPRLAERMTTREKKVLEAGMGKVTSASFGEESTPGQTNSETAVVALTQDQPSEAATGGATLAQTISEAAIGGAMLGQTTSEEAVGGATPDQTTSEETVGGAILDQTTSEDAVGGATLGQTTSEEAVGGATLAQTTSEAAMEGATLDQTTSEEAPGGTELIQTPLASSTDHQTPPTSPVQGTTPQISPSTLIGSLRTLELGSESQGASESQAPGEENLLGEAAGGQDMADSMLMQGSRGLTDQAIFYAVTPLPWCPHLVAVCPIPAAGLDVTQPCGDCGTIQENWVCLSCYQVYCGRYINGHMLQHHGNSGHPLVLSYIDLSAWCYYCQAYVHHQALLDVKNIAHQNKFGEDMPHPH
Kindly state IC50 for each of the entries shown.

Recorded results for 3 compounds are shown here.
                                   compound    experimentalsystem   datavalue
0  O=C(/C=C/c1cccn1CCOc1ccccc1)NO [Compound 232]  HDAC6 (Homo sapiens)  1 to 10 µM
1  CN(C)Cc1cccc(OCCn2ccc3ccc(C(=O)NO)cc32)c1 [Compound 324]  HDAC6 (Homo sapiens)  1 to 10 µM
2  CN(C)Cc1ccc(OCCn2ccc3ccc(C(=O)NO)cc32)cc1 [Compound 325]  HDAC6 (Homo sapiens)  1 to 10 µM

Answer for every listed entry: what is its IC50? The entries follow.
1. O=C(NO)c1ccc2ccn(CCOc3ccccc3CN3CCOCC3)c2c1 [Compound 326]
2. O=C(NO)c1ccc2ccn(CCOc3cccc(Cl)c3)c2c1 [Compound 321]

Output:
1. > 10 µM
2. 1 to 10 µM
